All figures here come from patent US4308278A.

System: CFY rats
method summary: anorexigenic effect in starved CFY rats (feed consumption / body weight)
Format: in vivo, rat
condition: oral; LD50 and ED50 in rats
Where a name gives a salt, the structure may show the parent alone.
parameter: Therapeutic ratio

INSERT INTO measurements (compound, assayed_system, test_result) VALUES
  ('COc1ccc(CC2CNC(=O)N2)cc1OC1CCCC1 (centres unmarked)', 'CFY rats', 72.5),
  ('CC(N)Cc1ccccc1 [D-Amphetamine, D-benzeneethanamine sulphate]', 'CFY rats', 7.6),
  ('CCNC(C)Cc1cccc(C(F)(F)F)c1 (racemic) [Fenfluramine, hydrochloride]', 'CFY rats', 20.3),
  ('CC(C)(N)Cc1ccc(Cl)cc1.Cl', 'CFY rats', 30.0),
  ('OC1(c2ccc(Cl)cc2)c2ccccc2C2=NCCN21 (centres unmarked)', 'CFY rats', 9.7);
